For each of the compounds below, state its pIC50.
- Test system: T. vaginalis
- Protocol Description: Trichomonas resorufin assay
- Type: cell-based
- Condition Notes: Trichomonas vaginalis, read-out: IC50 T. vaginalis
pIC50: −log10 of the molar value.

What reported pIC50 corresponds to CCCCNC(=N)CCNC(=O)c1cc(NC(=O)c2cc(NC(=O)c3ccc(/C=C/c4cnc5ccccc5c4)cc3)cn2C)cn1C [Ia34] on T. vaginalis?
5.30 to 6.00

What pIC50 appears in the records for this compound with T. vaginalis? CCCCCCCCCCCCCCCC[N+](C)(C)CCNC(=O)c1cc(NC(=O)c2cc(NC(=O)c3ccc(/C=C/c4cnc5ccccc5c4)cc3)cn2C)cn1C [Ic15]
4.30 to 5.30

Give pIC50 (T. vaginalis) of the following compound: [H]/N=C(\CCNC(=O)c1cc(NC(=O)c2cc(NC(=O)c3ccc(C=Cc4ccc(N(C)C)cc4)nc3)cn2C)cn1C)NCCCCCCCCC [Ia32]
< 4.30

====

- System: Rhizopus arrhizus
- Protocol Description: Expanded set of filamentous fungi, MIC broth microdilution (CLSI)
- Type: cell-based
- Condition Notes: isolate 99-892, MIC at 50% inhibition
So I've got a bunch of compounds here, and I need their MIC50 values.

Look up MIC50: C/N=C(/CCNC(=O)c1cc(NC(=O)c2cc(NC(=O)c3ccc(/C=C/c4cnc5ccccc5c4)cc3)cn2C)cn1C)NC
1 to 8 µg/mL

What does the record list as MIC50 for CNC(=N)CCNC(=O)c1cc(NC(=O)c2cc(NC(=O)c3ccc(/C=C/c4cnc5ccccc5c4)cc3)cn2C)cn1C ?
≤ 1 µg/mL

Value lookup for MIC50; key = C/N=C(\CCNC(=O)c1cc(NC(=O)c2cc(NC(=O)c3ccc(/C=C/c4ccc(N(C)C)cc4)nc3)cn2C)cn1C)NC
1 to 8 µg/mL

// returns reported MIC50 for input [H]/N=C(\CCNC(=O)c1cc(NC(=O)c2cc(NC(=O)c3ccc(C=Cc4ccc(N(C)C)cc4)nc3)cn2C)cn1C)NC
1 to 8 µg/mL

====

- Test system: Enterococcus faecalis (ATCC 51299)
- Protocol Description: Antibacterial MIC, broth microdilution (CLSI)
- Type: cell-based
- Condition Notes: SI, IC50 (μM)/MIC80 (μM); HEK293 cytotoxicity; Alkyl Amidines and NH Pyrroles
Measured Parameter: E. faecalis Selectivity Indices, Group

N=C(N)CCNC(=O)c1cc(NC(=O)c2cc(NC(=O)c3ccc(/C=C/c4cnc5ccccc5c4)cc3)c[nH]2)c[nH]1    D (D: SI > 10)
COc1cccc(/C=C/c2ccc(C(=O)Nc3cc(C(=O)Nc4cc(C(=O)NCCN5CCOCC5)n(C)c4)n(C)c3)cc2)c1 [Ref-1, reference compound]    A (Group A: SI < 3)
COc1cccc(/C=C/c2ccc(C(=O)Nc3cc(C(=O)Nc4cc(C(=O)NCCC(=N)N)n(C)c4)n(C)c3)cc2)c1 [Ref-5, reference compound]    A (Group A: SI < 3)
CC(C)/N=C(\N)CCNC(=O)c1cc(NC(=O)c2cc(NC(=O)c3ccc(/C=C/c4ccc5nonc5c4)cc3)cn2C)cn1C    D (D: SI > 10)

====

- Test system: Aspergillus flavus
- Protocol Description: Expanded set of filamentous fungi, MIC broth microdilution (CLSI)
- Type: cell-based
- Condition Notes: Aspergillus flavus, ATCC204304; isolate ATCC 204304; MIC at 50% inhibition
Could you please report measured MIC50 for the items listed next?

What MIC50 value was documented for this molecule, C/N=C(\CCNC(=O)c1cc(NC(=O)c2cc(NC(=O)c3ccc(/C=C/c4ccc(N(C)C)cc4)nc3)cn2C)cn1C)NC ?
1 to 8 mg/L

Param item = CNC(=N)CCNC(=O)c1cc(NC(=O)c2cc(NC(=O)c3ccc(/C=C/c4cnc5ccccc5c4)cc3)cn2C)cn1C ; retrieve measured MIC50.
≤ 1 mg/L

# lookup: MIC50 of [H]/N=C(\CCNC(=O)c1cc(NC(=O)c2cc(NC(=O)c3ccc(C=Cc4ccc(N(C)C)cc4)nc3)cn2C)cn1C)NC
1 to 8 mg/L

Could you tell me which MIC50 is on file for C/N=C(/CCNC(=O)c1cc(NC(=O)c2cc(NC(=O)c3ccc(/C=C/c4cnc5ccccc5c4)cc3)cn2C)cn1C)NC ?
≤ 1 mg/L
